- target under test: BCL6 BTB domain (BCL6 5-129, tag removed by HRV-3C protease) (human, UniProt P41182 5-129)
- assay protocol: fluorescence polarisation; direct binding of the BCOR-AF633 probe to BCL6 BTB, FP KD (Figure S1A)
- settings: both partners purified
Ends that are not written are not given here.
measured parameter: Kd (nM)

binder	unit of measure	measurement
RSEIISTAPSSWVVPGPC(Alexa Fluor 633 C5 maleimide)-NH2 (added C-terminal cysteine that carries the dye; also called BCOR-AF633; BCOR-A633; source: synthetic peptide, bought: Cambridge Research Biochemicals) [Alexa Fluor 633-conjugated BCOR peptide (RSEIISTAPSSWVVPGP-Cys(AF633)-amide)]	nM	1700
